Each entry below carries its recorded Reactivity (OD 492 nm).
Target: T1, HCV bt-141-161 (Peptide 2, HCVc 141-161) (Hepatitis C virus (numbering per HCV-1), biotin (carboxy-terminal per; N-terminal per))
T1 peptide: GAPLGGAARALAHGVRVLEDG
Assay: EIA, captured mAb + biotin peptide
Express your answer in OD units, writing the number without its unit.

Example results:
• HCV 208B-327 (antibody, V domains shown) VH: EVQLVESGGGLVKPGGSLKLSCAASGFTFSDSYMYWVRQTPDQRLEWVATISDGGSYTFYPDSVKGRFTISRDNAQNNLYLQMSSLKSEDTAMYYCASPHAGYFGWFAYWGRGTLVTVSA VL: DIVMTQAAFSNPVTPGTSVSISCRSSKSLLHSNGITYLYWYLQKPGQSPQLLIYQMSKIASGVPDRFRSSGSGTDFTLRISRVEAADVGVYYCAQNLELPWTFGGGTKLEIKR = 0.05
• HCV 208A-830 (antibody, V domains shown) VH: EVRLQQPGPEVEKPGASVKISCKTSGYTFTEYAIHWVKQSHGESLEWIGGINPSNGDPIYNQIFKDKATLTVDRSSNTAYMGLRSLTVGDSGVYFCVRRQLDYFDFWGQGASLTVSS VL: DIVLTQSPASLAVSLGQRATISCRSSQSVSTSRYSYLHWYQQKPGQPPKLLIKYASNLESGVPARFSGSGSGTDFTLNIHPVGEEDPATYYCQHSWEFPFTFGSGTKLEIKR = 2.88

IN: Could you please provide reported Reactivity (OD 492 nm) for HCV 208A-134 (antibody, V domains shown) VH: QGQMQQSGAELAKPGASVKLSCKTSGFTFSSSYISWLKQKPGQSLEWIAWIYAGTGNTNYNQKFTDKAQLTVDTSSSTAYMQLSSLTTEDSAIYYCAISGTGFTYWGQGTLVTVSA VL: EVLMTQSPLSLPVSLGDQASISCRSSQSLEHTNGNTYLEWFLQRPGQPPKLLIYKVSSRFSGVPDRFSGSGSGTDFTLKISRVEAEDLGVYYCFQGSHVPFTFGSGTKLAIKR ? Thanks!
OUT: 0.08
